assay: NCI Yeast Anticancer Drug Screen. Data for the rad52 strain (AID 147); details: S. cerevisiae rad52 mutant growth inhibition; at 11.0 µM
The panel holds about 79,000 compounds, 15% with a hit somewhere; the sample as a whole holds those more often. Calls of active or inactive are those of the source. Rule as the data show it: active = growth inhibition above about 70%; inactive = the rest.
# valid calls are true = active, false = inactive; nothing else

What was the test verdict on CCC1(O)C(=O)OCc2c1cc1n(c2=O)Cc2c-1nc1ccccc1c2OC (centres undefined) ?
true

What about Br[Se]c1ccccn1 ?
true

Next compound up: COc1cccc2c1C(=O)c1c(O)c3c(c(O)c1C2=O)C[C@@](O)(C(C)=O)C[C@@H]3OC1CC(N)C(OC2CC(O)C(O)C(C)O2)C(C)O1 (some centres undefined)
false

Field entry: NCCc1ccc(OCc2ccccc2)c(OCc2ccccc2)c1
false

Record: COc1cc(O)c2c(O)c3c(c4c2c1[C@]1(C4)C(C)=CCCC1(C)C)[C@H](O)[C@@]1(O)CC(=O)C(C(N)=O)=C(O)[C@@]1(O)C3=O
true

Please give the result for CC1(Cl)CC(C)(/C=C/Cl)C(Cl)CC1Cl (centres undefined) too.
false

Repeat for the following compound: CC1=C(O)C(=O)C=C2C1=CC=C1[C@@]2(C)CCC2(C)[C@@H]3C[C@@H](C)C(=O)C[C@]3(C)CC[C@]12C (some centres undefined)
true

Try the compound O=[N+]([O-])c1oc2ccc3ccccc3c2c1CCO
true

What about this compound? CC1CCC2(NC1)OC1CC3C4CCC5CC(OC6OC(CO)C(OC7OC(CO)C(O)C(OC8OCC(O)C(O)C8O)C7OC7OC(CO)C(O)C(O)C7O)C(O)C6O)CCC5(C)C4CCC3(C)C1C2C (centres undefined)
false

Next compound: CN(CCc1ccc(Br)cc1)CCN1CCCCC1
false

Next record, please: C[C@]12CCC(=O)C=C1CC[C@@H]1C2CC[C@@]2(C)C1CC[C@@H]2OC(=O)C12OC1CCC2=O (some centres undefined)
false

Cool, now COC1CC(CC2CCC(C)C(C(C)C(=O)O)O2)OC2(OC(C)(C3CCC(C)(C4OC(C5OC(O)(CO)C(C)CC5C)CC4C)O3)CC2C)C1C (centres undefined)
false

Lookup O=C1c2ccccc2C(=O)C(Cl)C1Cl (centres undefined)
true

Now the compound CC[PH+](CC)CC.CC[PH+](CC)CC.[Au]
false

// next record c1c(N2CCOCC2)ssc1=[N+]1CCOCC1
false

Likewise for O=C(c1ccccc1)C1C(c2ccccc2[N+](=O)[O-])N1C1CCCCC1 (centres undefined) ?
false

Query CC1=C2C(=C[C@@](C)(CO)[C@@H]2O)C(=O)[C@](C)(O)C12CC2 next
false

Query CS(=O)(=O)OCCN(CCOS(C)(=O)=O)c1ccc(C=O)cc1 next
false

Record: CCc1cccc(C(C)C)c1NC1=C([n+]2ccc(C)cc2)C(=O)c2ccccc2C1=O
false

Another compound to check: c1ccc(N=c2nc(N3CCOCC3)ss2)cc1
false

Here is the next compound: COC(=O)C1C2c3ccccc3C(c3ccccc32)C1C(=O)OC (centres undefined)
false

Please give the result for CCN(CC)CCBr too.
false

Ok, now CC(Cc1ccccc1)N(C)Cc1nc(C2CCC([N+](=O)[O-])O2)no1 (centres undefined)
false

Further, for [N-]=[N+]=C1C(Cl)=C(Cl)C(Cl)=C1Cl ?
false
